Measured target: T1, human CD300LB on primary human monocytes (human, UniProt A8K4G0 18-201)
T1 construct: Endogenous protein on primary cells; that the target is CD300LB is inferred from the antibodies being anti-CD300LB antibodies; also called Monocyte donor 1281; Monocyte donor 1282
T1 sequence: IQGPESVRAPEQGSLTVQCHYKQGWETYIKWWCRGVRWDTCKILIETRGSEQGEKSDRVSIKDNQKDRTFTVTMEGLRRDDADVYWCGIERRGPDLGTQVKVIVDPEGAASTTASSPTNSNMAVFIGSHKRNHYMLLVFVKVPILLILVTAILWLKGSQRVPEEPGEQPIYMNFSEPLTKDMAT
Protocol description: flow cytometry, primary human monocytes donor 1282, 10 ug/mL antibody, isotype control subtracted
Overview of reported gMFI across a group of binders:
Give your result in gMFI as a bare value.

Some solved cases for reference:
- anti-CD300LB antibody CD-05 (antibody, V domains shown) VH: QVQLVQSGAEVKKPGASVKVSCKASGYTFSRYYINWVRQAPGQGLEWMGWINPNSGGTNYAQKFQGRVTMTRDTSTSTVYMELSSLRSEDTAVYYCTTDQLRFGKTGPYYGMDVWGQGTTVTVSS VL: DIQMTQSPSSLSASVGDRVTITCRASQNIGTYLNWYQQKPGKAPKLLIYAASSLQSGVPSRFSGSGSGTDFTLTISSLQPEDFATYYCQQSYSDTLTFGGGTKVEIK: 1560
- anti-CD300LB antibody CD-09 (antibody, V domains shown) VH: QVQLVQSGAEVKKPGASVKVSCKASGYTFTTYAVHWVRQAPGQGLEWMGIINPNSGGTNYAQKFQGRVTMTRDTSTSTVYMELSSLRSEDTAVYYCARDIVPMNNFYNYYYGMDVWGQGTTVTVSS VL: DIQMTQSPSSLSASVGDRVTITCRASQSISSYLNWYQQKPGKAPKLLIYATSTLQSGVPSRFSGSGSGTDFTLTISSLQPEDFATYYCQQSYRIPYTFGQGTKVEIK: 3070
- anti-CD300LB antibody CD-08 (antibody, V domains shown) VH: EVQLLESGGGLVQPGGSLRLSCAASGFTFSNAWMSWVRQAPGKGLEWVSVISGSGGRTYYADSVKGRFTISRDNSKNTLYLQMNSLRAEDTAVYYCARDGTTVAPKGMDVWGQGTTVTVSS VL: DIQMTQSPSSLSASVGDRVTITCQASQDINNYVNWYQQKPGKAPKLLIYAASNLQSGVPSRFSGSGSGTDFTLTISSLQPEDFATYYCQQSYSPPYTFGQGTKLEIK: 4470

gMFI reading for anti-CD300LB antibody CD-06 (antibody, V domains shown) VH: QVQLVQSGAEVKKPGASVKVSCKASGYTFTTYAVHWVRQAPGQGLEWMGIVNPNSGGTNYAQKFQGRVTMTRDTSTSTVYMELSSLRSEDTAVYYCARDIVPMNNFYNYYYGMDVWGQGTTVTVSS VL: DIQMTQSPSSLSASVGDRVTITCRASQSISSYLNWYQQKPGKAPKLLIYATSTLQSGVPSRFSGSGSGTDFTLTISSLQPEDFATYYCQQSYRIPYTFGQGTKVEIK : 3440
